B1: KCNAB2 (parent)
chain: SSIIHEIDSILGNKPYSKKDYRS

Variants of: B1
ASSAY_SUMMARY: protein stability index of a GFP-peptide fusion (GPS, HEK-293T) (PSI 1-6); higher = more stable;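 also: lentivirally expressed fusions sorted by FACS into six bins by GFP to DsRed ratio, PSI derived from sequencing read proportions per bin multiplied by bin number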
RUN_PARAMETERS: c terminus: native
Please assign a class to every record based on measured protein stability index, with ranges bucket 1: < 3; bucket 2: ≥ 3 and < 4; bucket 3: ≥ 4

* R22D | bucket 3

Dear colleague, I would appreciate it if you could identify the bin for D20K and reply at your convenience.
bucket 1

Input Y16F ; output its category
bucket 2

Please let me know in which category the item I4G belongs.
bucket 1
